I'd appreciate it if you could supply pIC50 values for the items below.
system-name: human ERK-2 (Mitogen Activated Kinase 1) (Homo sapiens (Human), UniProt P28482)
Sequence (P28482 8-360): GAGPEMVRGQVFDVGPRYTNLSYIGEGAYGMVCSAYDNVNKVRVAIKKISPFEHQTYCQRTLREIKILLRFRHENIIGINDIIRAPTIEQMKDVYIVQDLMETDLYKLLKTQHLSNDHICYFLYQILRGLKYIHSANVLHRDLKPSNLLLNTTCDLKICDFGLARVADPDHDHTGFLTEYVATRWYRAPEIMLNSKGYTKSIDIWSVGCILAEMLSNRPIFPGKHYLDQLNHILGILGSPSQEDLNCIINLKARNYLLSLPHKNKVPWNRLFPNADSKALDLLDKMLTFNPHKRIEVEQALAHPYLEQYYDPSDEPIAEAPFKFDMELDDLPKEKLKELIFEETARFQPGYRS
experiment-notes: ERK-2 Enzymatic Assay
condition-info: 5 nM ERK-2, 25 μM ATP, Omnia peptide S/T17; read-out: ERK Inhibition IC50
Experimental: Compounds were tested in an enzymatic assay using human ERK-2 (Mitogen Activated Kinase 1), recombinantly expressed as an n-terminal 6-His fusion protein in E. coli and corresponding to aa 8-360. […] The assay was run at ambient temperature in a white 384-well polypropylene plate (Nunc, Inc of Naperville, Ill.; Cat. 267462) collecting data every 50 seconds for approximately 30 minutes on an Envision plate reader (PerkinElmer, Inc. of Waltham, Mass.); Excitation 340 nm/Emission 495 nm. […]
Numbers only, as −log10 of the molar value.

1) CC(C)Nc1ncc2c(n1)CN(C(=O)N[C@@H](c1ccc(F)c(Cl)c1)[C@H](C)O)CC2	8.49
2) C[C@@H](NC(=O)N1CCc2cnc(N[C@H]3CC[C@H](O)C3)nc2C1)c1ccc(C(F)(F)F)c(F)c1	8.57

Provide reported pIC50 for each item, in the same order as listed.
1. CCOc1cc(Nc2ncc3c(n2)CN(C(=O)N[C@H](C)c2ccc(Cl)c(Cl)c2)CC3)ccn1
2. C[C@@H](NC(=O)N1Cc2nc(NC3CCOCC3)ncc2C(F)(F)C1)c1ccc(Cl)c(Cl)c1
3. C[C@@H](NC(=O)N1CCc2cnc(N[C@H](CO)Cc3ccccc3)nc2C1)c1ccc(Cl)c(Cl)c1
4. CC(C)Nc1ncc2c(n1)CN(C(=O)N[C@H](CNS(C)(=O)=O)c1ccc(F)c(Cl)c1)CC2
5. N#CCN1C[C@@H](NC(=O)N2CCc3cnc(NC4CCOCC4)nc3C2)[C@H](c2ccc(F)c(F)c2)C1

[out]
8.25
8.80
8.33
8.15
8.40

Taken from patent US9133187B2.
